Hello, the source for this data is PubChem BioAssay AID1963830, in case you need it.

Reported values of viability, T/C for individual entries
System: 922993-354-T-J3-PDC complex spheroid viability;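 note: spheroids exposed to the agents for one week; 100% = DMSO vehicle control wells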
ASSAY OVERVIEW: Anticancer human tumor 922993-354-T-J3-PDC patient-derived endometrial carcinoma cell line growth inhibition [POLQ]
EXPERIMENTAL CONTEXT: second compound 3.16 µM; first compound 0.1 µM; active compounds read low
RECORDED ENDPOINT: viability, T/C (%)

COMPOUND	RECORDED ENDPOINT	ASSAY VALUE
Nc1ccn(C2OC(CO)C(O)C2(F)F)c(=O)n1 (stereo unspecified) + Nc1ccc(C#CCN(C(=O)Cc2ncc(C(F)(F)F)cc2C(F)(F)F)c2ccc(F)cc2)nn1	viability, T/C	18.7
CC[C@@]1(O)C(=O)OCc2c1cc1n(c2=O)Cc2cc3c(CN(C)C)c(O)ccc3nc2-1 + Cc1cccc(N(C)C(=O)C2C(O)CCN2c2nc(C)cc(C(F)(F)F)c2C#N)c1	viability, T/C	49.9
COc1ccc([C@@H](O)c2cc(-c3ncnc4cc(N5CCOCC5)ccc34)c(F)cc2Cl)nn1 + Cc1cccc(N(C)C(=O)C2C(O)CCN2c2nc(C)cc(C(F)(F)F)c2C#N)c1	viability, T/C	102
C=CCn1c(=O)c2cnc(Nc3ccc(N4CCN(C)CC4)cc3)nc2n1-c1cccc(C(C)(C)O)n1 + COC1C(OC(N)=O)C(O)C(Oc2ccc3c(O)c(NC(=O)c4ccc(O)c(CC=C(C)C)c4)c(=O)oc3c2C)OC1(C)C	viability, T/C	91.1
CC1COCCN1c1cc(-c2ccnn2C)c2ccnc(-c3ccn[nH]3)c2n1 (stereo unspecified) + Nc1ccc(C#CCN(C(=O)Cc2ncc(C(F)(F)F)cc2C(F)(F)F)c2ccc(F)cc2)nn1	viability, T/C	89.5
O=C(Nc1ccc(O)c(NS(=O)(=O)c2ccc(F)cc2)c1)c1ccc(-c2ccccc2)cc1 + COC1C(OC(N)=O)C(O)C(Oc2ccc3c(O)c(NC(=O)c4ccc(O)c(CC=C(C)C)c4)c(=O)oc3c2C)OC1(C)C	viability, T/C	92.2
CC(C)n1c(=O)n(C)c2cnc3cc(F)c(-c4ccc(OCCCN5CCCCC5)nc4)cc3c21 + Nc1ccc(C#CCN(C(=O)Cc2ncc(C(F)(F)F)cc2C(F)(F)F)c2ccc(F)cc2)nn1	viability, T/C	99.4
CCc1c2c(nc3ccc(O)cc13)-c1cc3c(c(=O)n1C2)COC(=O)[C@]3(O)CC + Nc1ccc(C#CCN(C(=O)Cc2ncc(C(F)(F)F)cc2C(F)(F)F)c2ccc(F)cc2)nn1	viability, T/C	17.4
O=C(c1cc(Cc2n[nH]c(=O)c3ccccc23)ccc1F)N1CCN(C(=O)C2CC2)CC1 + Cc1cccc(N(C)C(=O)C2C(O)CCN2c2nc(C)cc(C(F)(F)F)c2C#N)c1	viability, T/C	107
O=c1[nH]cc(F)c(=O)[nH]1 + Nc1ccc(C#CCN(C(=O)Cc2ncc(C(F)(F)F)cc2C(F)(F)F)c2ccc(F)cc2)nn1	viability, T/C	103
Nc1ccn(C2OC(CO)C(O)C2(F)F)c(=O)n1 (stereo unspecified) + COC1C(OC(N)=O)C(O)C(Oc2ccc3c(O)c(NC(=O)c4ccc(O)c(CC=C(C)C)c4)c(=O)oc3c2C)OC1(C)C	viability, T/C	8.92
CC1COCCN1c1cc(C2(S(C)(=N)=O)CC2)nc(-c2ccnc3[nH]ccc23)n1 (stereo unspecified) + Cc1cccc(N(C)C(=O)C2C(O)CCN2c2nc(C)cc(C(F)(F)F)c2C#N)c1	viability, T/C	96.8
Cn1ncnc1[C@H]1c2n[nH]c(=O)c3cc(F)cc(c23)N[C@@H]1c1ccc(F)cc1 + Nc1ccc(C#CCN(C(=O)Cc2ncc(C(F)(F)F)cc2C(F)(F)F)c2ccc(F)cc2)nn1	viability, T/C	82.6
CCc1cc2c(N3CCc4c(cc(Cn5ccnc5)cc4-c4cn(C)nc4C(F)(F)F)C3=O)ccnc2c(OC)n1 + COC1C(OC(N)=O)C(O)C(Oc2ccc3c(O)c(NC(=O)c4ccc(O)c(CC=C(C)C)c4)c(=O)oc3c2C)OC1(C)C	viability, T/C	96.5
CCCS(=O)(=O)Nc1ccc(F)c(C(=O)c2c[nH]c3ncc(-c4ccc(Cl)cc4)cc23)c1F + Cc1cccc(N(C)C(=O)C2C(O)CCN2c2nc(C)cc(C(F)(F)F)c2C#N)c1	viability, T/C	103
CCc1cc2c(N3CCc4c(cc(Cn5ccnc5)cc4-c4cn(C)nc4C(F)(F)F)C3=O)ccnc2c(OC)n1 + Nc1ccc(C#CCN(C(=O)Cc2ncc(C(F)(F)F)cc2C(F)(F)F)c2ccc(F)cc2)nn1	viability, T/C	99.5
CC1COCCN1c1cc(C2(O)CC3CCC(C2)O3)c2cnn(-c3ccn[nH]3)c2n1 (stereo unspecified) + Cc1cccc(N(C)C(=O)C2C(O)CCN2c2nc(C)cc(C(F)(F)F)c2C#N)c1	viability, T/C	89.2
COc1cc(C2c3cc4c(cc3C(OC3OC5COC(C)OC5C(O)C3O)C3COC(=O)C23)OCO4)cc(OC)c1O (stereo unspecified) + Cc1cccc(N(C)C(=O)C2C(O)CCN2c2nc(C)cc(C(F)(F)F)c2C#N)c1	viability, T/C	95.8
C#Cc1c(F)ccc2cc(O)cc(-c3ncc4c(N5CC6CCC(C5)N6)nc(OCC56CCCN5CC(F)C6)nc4c3F)c12 (stereo unspecified) + COC1C(OC(N)=O)C(O)C(Oc2ccc3c(O)c(NC(=O)c4ccc(O)c(CC=C(C)C)c4)c(=O)oc3c2C)OC1(C)C	viability, T/C	90.3
C=CC(=O)N1CCN(c2nc(=O)n(-c3c(C)ccnc3C(C)C)c3nc(-c4c(O)cccc4F)c(F)cc23)C(C)C1 (stereo unspecified) + Cc1cccc(N(C)C(=O)C2C(O)CCN2c2nc(C)cc(C(F)(F)F)c2C#N)c1	viability, T/C	103
C=CC(=O)N1CCN(c2nc(=O)n(-c3c(C)ccnc3C(C)C)c3nc(-c4c(O)cccc4F)c(F)cc23)C(C)C1 (stereo unspecified) + Nc1ccc(C#CCN(C(=O)Cc2ncc(C(F)(F)F)cc2C(F)(F)F)c2ccc(F)cc2)nn1	viability, T/C	105
